- Tested on: C. albicans
- Assay type: cell-based, Candida albicans
- settings: 24 h
Numbered stars: 1 amine (or outer) side, 2 acyl side, 3 side chain; on linkers, the order of the positions; unused ones are H or OH. Square brackets hold non-standard residues; d marks the D form. Peptide text beside a SMILES is read from it. * marks the point of attachment. N(1S-cyclohexylethyl)Gly = C[C@H](NCC(=O)O)C1CCCCC1; N(tridecyl)Gly = CCCCCCCCCCCCCNCC(=O)O; X2 = O=C(CN(c1cccc2ccccc12)[*:1])[*:2]; N(4-MeOBn)Gly = COc1ccc(CNCC(=O)O)cc1; X1 = CC(c1ccccc1)N(CC(=O)[*:2])[*:1]; Gly(N-2-aminoethyl) = NCCNCC(=O)O; Myristoyl = CCCCCCCCCCCCCC(=O)*; NFurfurylGly = O=C(O)CNCc1ccco1; Gly(N(CH2)3NH2) = NCCCNCC(=O)O; Nphe = O=C(O)CNCc1ccccc1; NPrGly = CCCNCC(=O)O; Nlys = NCCCCNCC(=O)O; Sar = CNCC(=O)O
reported-metric: MIC C. albicans (µg/mL)

compound | recorded-value
CCCCCCCCCCCCCC(=O)NCC(=O)N(CCC)CC(=O)N(CC(=O)N(CCCCN)CC(=O)N(CC(=O)N(CC(=O)N(CCCN)CC(N)=O)Cc1ccc(OC)cc1)Cc1ccco1)C(C)c1ccccc1 (stereo not drawn) [Compound 911-M16] (Myristoyl-G[NPrGly][X1][Nlys][NFurfurylGly][N(4-MeOBn)Gly][Gly(N(CH2)3NH2)]-NH2) | 6.25
CCCCCCCCCCCCCC(=O)NCC(=O)N(CCC)CC(=O)N(CC(=O)N(CCCCN)CC(=O)N(CC(=O)N(CC(=O)N(CCCN)CC(N)=O)[C@@H](C)C1CCCCC1)Cc1ccco1)C(C)c1ccccc1 (stereo partly drawn) [Compound 911-M17] (Myristoyl-G[NPrGly][X1][Nlys][NFurfurylGly][N(1S-cyclohexylethyl)Gly][Gly(N(CH2)3NH2)]-NH2) | 6.25
CCCCCCCCCCCCCNCC(=O)N(CCC)CC(=O)N(CC(=O)N(CCCCN)CC(=O)N(CC(=O)N(C)CC(=O)N(CCCN)CC(N)=O)Cc1ccco1)C(C)c1ccccc1 (stereo not drawn) [SAR 6] (H-[N(tridecyl)Gly][NPrGly][X1][Nlys][NFurfurylGly][Sar][Gly(N(CH2)3NH2)]-NH2) | 25
CCCCCCCCCCCCCC(=O)NCC(=O)N(CCN)CC(=O)N(CC(=O)N(CCCCN)CC(=O)N(CC(=O)N(CC(=O)N(CCCN)CC(N)=O)Cc1ccccc1)Cc1ccco1)[C@@H](C)C1CCCCC1 [Compound 911-M12] (Myristoyl-G[Gly(N-2-aminoethyl)][N(1S-cyclohexylethyl)Gly][Nlys][NFurfurylGly][Nphe][Gly(N(CH2)3NH2)]-NH2) | 6.25
CCCCCCCCCCCCCC(=O)NCC(=O)N(CCC)CC(=O)N(CC(=O)N(CCCCN)CC(=O)N(CC(=O)N(CC(=O)N(CCCN)CC(N)=O)c1cccc2ccccc12)Cc1ccco1)C(C)c1ccccc1 (stereo not drawn) [Compound 911-M15] (Myristoyl-G[NPrGly][X1][Nlys][NFurfurylGly][X2][Gly(N(CH2)3NH2)]-NH2) | 6.25
CCCCCCCCCCCCCC(=O)NCC(=O)N(CCC)CC(=O)N(CC(=O)N(CCCCN)CC(=O)N(CC(=O)N(CC(=O)N(CCCN)CC(N)=O)Cc1ccco1)Cc1ccco1)C(C)c1ccccc1 (stereo not drawn) [Compound 911-M18] (Myristoyl-G[NPrGly][X1][Nlys][NFurfurylGly][NFurfurylGly][Gly(N(CH2)3NH2)]-NH2) | 6.25

Origin of the recorded values: patent US20240391889A1
